Listed next: entries and their corresponding cytotoxicity.
# ASSAY: viability loss of HPDE-C7K cells – cell-based, fluorescence, HTS, primary screen (AID 431);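 also: 0% = DMSO solvent wells and 100% = doxorubicin-treated wells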
# SETTINGS: HPDE-C7K KRASV12 cells, Alamar Blue viability, 48 h; at 10 µM; active compounds read high
Out of some 63,000 compounds screened, about 1,100 (1.7%) were called active. Only a selection was taken, and actives are over-represented in it overall. Measured potencies and affinities stand elsewhere.
METRIC: cytotoxicity (%)

compound_string=COc1ccc(N2CCN(c3ncnc4c3cnn4-c3ccc(C)cc3C)CC2)cc1 unit_spec=% recorded_value=-12.5
compound_string=CCOC(=O)N1CCN(C(=O)c2ccc3c(c2)sc2nc(-c4ccccc4)cn23)CC1 unit_spec=% recorded_value=6.1
compound_string=CCc1cc2c(N3CCN(c4ccccc4)CC3)ncnc2s1 unit_spec=% recorded_value=91.1
compound_string=Cc1ccc(-n2ncc3c(N4CCCC4)ncnc32)c(C)c1 unit_spec=% recorded_value=1.2
compound_string=Cc1cc(C)n(S(=O)(=O)c2cccc(Cl)c2Cl)n1 unit_spec=% recorded_value=-9.2
compound_string=COc1ccc2c(c1)sc1nc(-c3ccccc3)cn12 unit_spec=% recorded_value=53.3

---

# ASSAY: viability loss of HPDE-C7K cells – cell-based, fluorescence, HTS, primary screen (AID 431);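 also: 0% = DMSO solvent wells and 100% = doxorubicin-treated wells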
# SETTINGS: HPDE-C7K KRASV12 cells, Alamar Blue viability, 48 h; at 10 µM; active compounds read high
In all, about 63,000 compounds went through this assay and about 1,100 (1.7%) were called active. The sample holds actives, similar compounds and a random draw of the others, so the mix is not that of the screen. Results with a measured potency or affinity are listed apart.
METRIC: cytotoxicity (%)

compound="COc1cc2c(cc1OC)C1Cc3ccc(OC)c(OC)c3CN1CC2 (stereo unspecified)" recorded_value=-5
compound=O=C(Oc1c(Cl)cc(Cl)c2cccnc12)N1CCCCC1 recorded_value=10.8
compound=CCOC(=O)c1c(NC(C)=O)no[n+]1[O-] recorded_value=-10.4
compound=CCCC(=O)Nc1ccc(Cl)c(NC(=O)c2ccco2)c1 recorded_value=3.9
compound="O=C(COC(=O)C(O)c1ccccc1)c1ccc2c(c1)OCCO2 (stereo unspecified)" recorded_value=-14.7
compound=CCCCOc1ccc(S(=O)(=O)Nc2cc(OC)ccc2OC)cc1 recorded_value=32.5
compound=Cc1cc(N2CCN(c3ccccc3)CC2)nc(-c2ccccc2)n1 recorded_value=-1.4
compound=COC(=O)COc1ccc(S(=O)(=O)Nc2cc(OC)ccc2OC)cc1 recorded_value=0
compound=COc1ccccc1NC(=O)N1CCN(c2ccccc2F)CC1 recorded_value=8
compound="Cc1cc(N2C3CCC2CC(O)(c2ccc(F)cc2)C3)nc(-c2ccccc2)n1 (stereo unspecified)" recorded_value=76.5
compound=Cc1cc(N2CCC(C(=O)Nc3ccc(F)cc3)CC2)nc(-c2ccccc2)n1 recorded_value=-0.7

---

# ASSAY: viability loss of HPDE-C7K cells – cell-based, fluorescence, HTS, primary screen (AID 431);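 also: 0% = DMSO solvent wells and 100% = doxorubicin-treated wells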
# SETTINGS: HPDE-C7K KRASV12 cells, Alamar Blue viability, 48 h; at 10 µM
In all, about 63,000 compounds went through this assay and about 1,100 (1.7%) were called active.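 How the source made its calls: active means compounds whose percent cytotoxicity in the single-dose primary screen, scaled between solvent and toxic-drug controls, exceeds 50; inactive means the rest.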 Only a selection was taken, and actives are over-represented in it overall. Potency and affinity values are given separately.
Possible outcomes: Y (active), N (inactive)

compound="CCOc1ccc(Nc2c3c(nc4ncnn24)CC(C)CC3)cc1 (stereo not given)" class_name=N
compound=Cc1ccc(-n2ncc(C(=O)N3CCc4ccccc4C3)c2NC(=O)c2ccco2)cc1C class_name=Y
compound="CCC(C)Sc1nnc(Cc2cc(=O)[nH]c(=O)[nH]2)n1-c1ccc(F)cc1 (stereo not given)" class_name=N
compound="Cc1ccc(C2CC(=O)Nc3cc4c(cc32)OCCO4)s1 (stereo not given)" class_name=N
compound=COCCN(CCOC)S(=O)(=O)c1ccc(C(=O)Nc2nnc(C)o2)cc1 class_name=N
compound=O=S(=O)(c1cccc(-c2csc(-c3cccnc3)n2)c1)N1CCCCC1 class_name=N
compound=Cc1ccc(NC(=O)c2cnn(-c3ccccc3)c2NC(=O)c2ccco2)cc1C class_name=N
compound="CCCOc1ccccc1C1CC(=O)Nc2cc3c(cc21)OCCO3 (stereo not given)" class_name=Y
compound="COc1cccc(-c2nnc(NC(=O)c3ccc(S(=O)(=O)N4CC(C)OC(C)C4)cc3)o2)c1 (stereo not given)" class_name=N
compound=COc1cccc(-c2nnc(NC(=O)c3ccc(S(=O)(=O)N(CC(C)C)CC(C)C)cc3)o2)c1 class_name=Y
